Target: 5-hydroxytryptamine receptor 2A (Homo sapiens); further: assay procedure not described here
Sequence (P28223 whole entry): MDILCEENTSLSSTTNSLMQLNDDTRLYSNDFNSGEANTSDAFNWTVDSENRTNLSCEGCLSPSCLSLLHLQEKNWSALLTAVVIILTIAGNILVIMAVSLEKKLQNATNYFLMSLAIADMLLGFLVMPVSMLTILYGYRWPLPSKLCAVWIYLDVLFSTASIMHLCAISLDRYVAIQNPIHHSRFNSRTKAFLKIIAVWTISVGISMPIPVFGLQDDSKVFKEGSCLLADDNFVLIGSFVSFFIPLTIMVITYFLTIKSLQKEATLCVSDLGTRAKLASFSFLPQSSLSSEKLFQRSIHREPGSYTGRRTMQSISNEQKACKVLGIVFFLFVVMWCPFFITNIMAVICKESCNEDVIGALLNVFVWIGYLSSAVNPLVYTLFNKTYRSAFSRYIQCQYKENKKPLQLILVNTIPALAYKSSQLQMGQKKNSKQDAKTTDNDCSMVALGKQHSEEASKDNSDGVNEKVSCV
Format: functional, cell-based
REPORTED METRIC: AC50

# COMPOUND, TARGET SYSTEM, AC50
records = [
    ("CCCCCNC(=N)N/N=C/c1c[nH]c2ccc(OC)cc12", "5-hydroxytryptamine receptor 2A (Homo sapiens)", "1.5 µM"),
]

Challenge: // fetch AC50 for c1cnc(N2CCN(Cc3ccc4c(c3)OCO4)CC2)nc1 ; system: 5-hydroxytryptamine receptor 2A (Homo sapiens); further: assay procedure not described here
Response given: > 30 µM

Challenge: Report value only: AC50, 5-hydroxytryptamine receptor 2A (Homo sapiens), CC(CC1c2ccccc2CCc2ccccc21)CN(C)C (configuration not stated)
Response given: 15 µM

Challenge: # lookup: 5-hydroxytryptamine receptor 2A (Homo sapiens) AC50, key = CC(C)(C)NCC(O)COc1cccc2c1CCC(=O)N2 (configuration not stated)
Response given: > 10 µM

Challenge: Give the observed AC50 of COC(=O)C1=C(C)NC(C)=C(C(=O)OC(C)(C)CN(C)CCC(c2ccccc2)c2ccccc2)C1c1cccc([N+](=O)[O-])c1 (configuration not stated) for 5-hydroxytryptamine receptor 2A (Homo sapiens).
Response given: > 30 µM

Challenge: Specify the recorded AC50 for CCCCc1ncc(/C=C(\Cc2cccs2)C(=O)O)n1Cc1ccc(C(=O)O)cc1 , system: 5-hydroxytryptamine receptor 2A (Homo sapiens). Further: assay procedure not described here.
Response given: > 30 µM

----------
Target: 5-hydroxytryptamine receptor 2B (Homo sapiens, UniProt P41595); further: assay procedure not described here
Sequence (P41595 whole entry): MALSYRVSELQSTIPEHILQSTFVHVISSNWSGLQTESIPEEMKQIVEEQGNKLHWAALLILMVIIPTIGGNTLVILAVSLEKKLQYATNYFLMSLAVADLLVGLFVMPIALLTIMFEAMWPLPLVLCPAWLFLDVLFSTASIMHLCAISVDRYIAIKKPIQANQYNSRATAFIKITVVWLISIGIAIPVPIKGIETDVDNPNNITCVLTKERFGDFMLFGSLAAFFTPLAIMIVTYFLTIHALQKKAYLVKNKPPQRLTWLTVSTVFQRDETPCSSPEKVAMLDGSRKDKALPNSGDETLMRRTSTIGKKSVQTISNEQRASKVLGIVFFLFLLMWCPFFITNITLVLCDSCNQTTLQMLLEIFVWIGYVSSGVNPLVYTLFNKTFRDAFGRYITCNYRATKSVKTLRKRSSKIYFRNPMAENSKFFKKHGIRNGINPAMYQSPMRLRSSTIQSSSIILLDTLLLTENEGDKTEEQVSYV
Format: functional, cell-based
Measured AC50 accompanies every entry in the list below.

// solved cases for AC50 follow
# COMPOUND, TARGET SYSTEM, AC50
data = [
    ("C=CCN1C[C@H](C(=O)N(CCCN(C)C)C(=O)NCC)C[C@@H]2c3cccc4[nH]cc(c34)C[C@H]21", "5-hydroxytryptamine receptor 2B (Homo sapiens, UniProt P41595)", "0.189 µM"),
    ("CC[C@H]1CN2CCc3cc(OC)c(OC)cc3[C@@H]2C[C@@H]1C[C@H]1NCCc2cc(OC)c(OC)cc21", "5-hydroxytryptamine receptor 2B (Homo sapiens, UniProt P41595)", "> 30 µM"),
    ("Nc1nc(NC2CC2)c2ncn([C@H]3C=C[C@@H](CO)C3)c2n1", "5-hydroxytryptamine receptor 2B (Homo sapiens, UniProt P41595)", "> 30 µM"),
]

Challenge: Return AC50 for the following compound: C[C@H](CSC(=O)c1ccccc1)C(=O)N1C[C@@H](Sc2ccccc2)C[C@H]1C(=O)O
Response given: > 10 µM

Challenge: For Cc1cn([C@H]2C=C[C@@H](CO)O2)c(=O)[nH]c1=O , write its AC50.
Response given: > 10 µM

Challenge: Tell me AC50 reported for Cn1nnc2c(C(N)=O)ncn2c1=O [TEMOZOLOMIDE]
Response given: > 30 µM

Challenge: Consider the compound C=CCN1CCCC1CNC(=O)c1cc(S(N)(=O)=O)cc(OC)c1OC (stereo unspecified) [VERALIPRIDE] . State its measured AC50.
Response given: > 30 µM

Challenge: Entry COC(=O)C1=C(C)NC(C)=C(C(=O)OC2CCCN(Cc3ccccc3)C2)C1c1cccc([N+](=O)[O-])c1 (stereo unspecified) needs its AC50 filled in; supply it.
Response given: > 30 µM

Challenge: Could you please provide reported AC50 for CN1[C@@H]2CC[C@H]1C[C@@H](OC(c1ccccc1)c1ccccc1)C2 ? Thanks!
Response given: > 30 µM

Challenge: Using the record for CCCC1O[C@@H]2C[C@H]3[C@@H]4CCC5=CC(=O)C=C[C@]5(C)[C@H]4[C@@H](O)C[C@]3(C)[C@]2(C(=O)CO)O1 (stereo partly specified) [BUDESONIDE] , state its measured AC50.
Response given: > 10 µM

Challenge: Supply measured AC50 of CN(C)CCc1c[nH]c2ccc(C[C@H]3COC(=O)N3)cc12 in your reply.
Response given: > 30 µM

Challenge: Input CC(CC1c2ccccc2CCc2ccccc21)CN(C)C (stereo unspecified) , output reported AC50.
Response given: > 30 µM

Challenge: Kindly indicate its recorded AC50. Item: COc1ccccc1OCC(O)CN1CCN(CC(=O)Nc2c(C)cccc2C)CC1 (stereo unspecified)
Response given: > 30 µM
